assay: Antagonist activity for glucocorticoid receptor; format: functional
observed-property: IC50

Ask: Answer with the recorded IC50 for the compound listed here: N#Cc1cccc(-c2ccc3c(c2)C2(CCCCC2)C(=O)N3)c1
Result: > 1000 nM

---

Answer each item with its documented pIC50.
biological target: Progesterone receptor (Homo sapiens, UniProt P06401); experiment: Ability to block progesterone induced alkaline phosphatase activity in T47D human breast cancer cell line
Sequence (P06401 whole entry): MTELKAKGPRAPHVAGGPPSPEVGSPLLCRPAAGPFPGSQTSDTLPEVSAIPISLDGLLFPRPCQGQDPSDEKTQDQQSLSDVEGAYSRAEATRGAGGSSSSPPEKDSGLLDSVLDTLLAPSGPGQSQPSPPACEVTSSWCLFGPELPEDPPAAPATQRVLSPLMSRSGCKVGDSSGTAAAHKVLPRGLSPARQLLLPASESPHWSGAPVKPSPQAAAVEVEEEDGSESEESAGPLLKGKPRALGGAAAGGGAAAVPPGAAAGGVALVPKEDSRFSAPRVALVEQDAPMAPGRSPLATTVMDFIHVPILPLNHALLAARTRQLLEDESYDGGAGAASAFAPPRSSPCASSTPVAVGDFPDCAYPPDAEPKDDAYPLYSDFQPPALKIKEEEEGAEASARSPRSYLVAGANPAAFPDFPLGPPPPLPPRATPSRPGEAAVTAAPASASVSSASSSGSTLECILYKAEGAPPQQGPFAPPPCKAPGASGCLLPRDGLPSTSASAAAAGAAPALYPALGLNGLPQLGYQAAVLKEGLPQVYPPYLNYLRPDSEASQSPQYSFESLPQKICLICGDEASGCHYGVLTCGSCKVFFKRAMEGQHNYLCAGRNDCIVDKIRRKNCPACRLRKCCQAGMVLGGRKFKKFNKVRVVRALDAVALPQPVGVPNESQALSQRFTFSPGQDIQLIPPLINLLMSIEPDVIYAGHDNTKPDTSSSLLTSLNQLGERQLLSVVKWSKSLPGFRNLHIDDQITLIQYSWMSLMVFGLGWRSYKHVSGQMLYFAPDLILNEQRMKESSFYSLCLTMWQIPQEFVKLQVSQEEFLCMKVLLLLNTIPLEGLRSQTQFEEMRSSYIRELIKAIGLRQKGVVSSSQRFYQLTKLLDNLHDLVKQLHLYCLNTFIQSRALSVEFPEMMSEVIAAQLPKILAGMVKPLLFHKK
pIC50: −log10 of the molar value.

# mol-smiles, observed-property, result
measured = [
    ("CC1(C)OC(=O)Nc2ccc(-c3cccc(C#N)c3)cc21", "pIC50", 8.10),
    ("Cn1c(C#N)ccc1-c1ccc2c(c1)C1(CCCCC1)C(=O)N2", "pIC50", "< 5.52"),
    ("CC1(C)OC(=O)Nc2ccc(-c3ccc([N+](=O)[O-])[nH]3)cc21", "pIC50", 6.74),
    ("CC1(C)OC(=O)Nc2ccc(-c3c[nH]c(C#N)c3)cc21", "pIC50", "~5.70"),
    ("N#Cc1ccc(-c2ccc3c(c2)C2(CCCCC2)C(=O)N3)[nH]1", "pIC50", "< 5.52"),
    ("CC1(C)OC(=O)Nc2ccc(-c3ccc[nH]3)cc21", "pIC50", "~5.52"),
    ("CC1(C)OC(=O)Nc2ccc(-c3[nH]ccc3C#N)cc21", "pIC50", "< 5.52"),
    ("CC1(C)OC(=O)Nc2ccc(-c3ccc(C(=O)C(F)(F)F)[nH]3)cc21", "pIC50", "< 5.52"),
]

Hi there! I need pIC50 for each item below, if you can.
1. O=C1Nc2ccc(-c3ccc([N+](=O)[O-])[nH]3)cc2C12CCCCC2
2. CCn1c(C#N)ccc1-c1ccc2c(c1)C(C)(C)OC(=O)N2
3. CC1(C)OC(=O)Nc2ccc(-c3cnc(C#N)o3)cc21

Result:
1: 7.44; 2: ~5.52; 3: ~5.52

Hi there! I need pIC50 for each item below, if you can.
1. CC1(C)OC(=O)Nc2ccc(-c3ccc(C#N)s3)cc21
2. Cn1ccc(C#N)c1-c1ccc2c(c1)C(C)(C)OC(=O)N2
3. CC1(C)OC(=O)Nc2ccc(-c3ccc(C#N)o3)cc21
4. Cn1c(C#N)ccc1-c1ccc2c(c1)C(C)(C)OC(=O)N2
5. CC1(C)OC(=O)Nc2ccc(-c3ccc(C#N)[nH]3)cc21
6. CC1(C)OC(=O)Nc2ccc(-c3ccc(C=O)[nH]3)cc21
7. Cn1cc(-c2ccc3c(c2)C(C)(C)OC(=O)N3)cc1C#N
8. Cn1c(-c2ccc3c(c2)C(C)(C)OC(=O)N3)cnc1C#N

Result:
[7.64, "~5.52", 7.19, "< 5.52", "< 5.52", "< 5.52", 7.39, "< 5.52"]

// data source = ChEMBL document CHEMBL1147554
